test: Cell Viability - H-4-II-E (AID 543); details: H-4-II-E rat hepatoma viability; series mostly up to 92.2 µM;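 further: cells exposed to compound for 40 hours; nearly all actives have a fitted effect of over 35% in size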
Results filed as inconclusive are left out. Calls of active or inactive are those of the source. The call rests on the fitted dose curve; in most records, active means well fitted cell-killing curve with a large enough effect; inconclusive means small, poorly fitted or top-dose-only effect; inactive means flat fitted curve, though single readings scatter.
reportedEndpoint: outcome

See these solved cases before continuing.
>>> readoutvalue("CC1=C2[C@H](/C=C(\\C)C(=O)O)CC[C@@H](C)[C@H]2CC1")
"inactive"
>>> readoutvalue("COC(=O)c1ccc(C=O)cc1")
"inactive"
>>> readoutvalue("Cc1ccccc1C")
"inactive"
>>> readoutvalue("Cc1cccc([N+](=O)[O-])c1C")
"inactive"

Shifting focus to the compound that follows.
Notebook: CCCCC(CC)CN (stereo not given) , outcome read as inactive

* * *

biological target: Ubiquitin carboxyl-terminal hydrolase 1 (Homo sapiens); experiment: Inhibitors of USP1/UAF1: Pilot qHTS (AID 504865); settings: purified USP1/UAF1, Ub-rhodamine cleavage fluorescence; series mostly up to 54.9 µM;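 further: rhodamine fluorescence freed from ubiquitin-rhodamine substrate followed over time; top concentration of the series differs between compounds; nearly all actives have a fitted effect of over 35% in size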
Records with an inconclusive call do not appear. Activity calls are given as the source filed them. Calls come from the whole dose curve; as a rule, active = well fitted inhibition curve with a large enough effect; inconclusive = small, poorly fitted or top-dose-only effect; inactive = flat fitted curve, though single readings scatter.
Please state which outcome applies, choosing from true for active, false for inactive

Answered examples (2):
>>> categorylabel("CN(Cc1ccco1)c1cc(-c2ccc3c(c2)OCO3)ncn1")
"false"
>>> categorylabel("COCCn1c(=O)c(-c2ccccc2)nc2cnc(Oc3cccc(Cl)c3)nc21")
"false"

Q. Call for entry `COc1cccc(Cn2c(=O)cnc3cnc(N(C)C)nc32)c1` :
A. false

Q. Call for entry `COc1cccc(-c2cncnc2NCc2ccccc2OC)c1` :
A. false

Q. Call for entry `Cn1c(=O)c(-c2ccc(Cl)cc2)nc2cncnc21` :
A. false

Q. Call for entry `COc1cccc(-c2ccc3ncnc(NCc4cnc(C)cn4)c3c2)c1` :
A. false

Q. Call for entry `O=c1c(CCc2ccccc2)nc2cnc(Oc3ccccc3)nc2n1C1CC1` :
A. false

Q. Call for entry `COc1ccc(-c2nc3cnc(N4CCN(C)CC4)nc3n(CCc3ccccc3)c2=O)cc1` :
A. false

Q. Call for entry CC(C)(CO)C(O)C(=O)NCCCC(=O)O (configuration not stated) :
A. false

Q. Call for entry `CN(Cc1ccco1)c1nc(-c2cccnc2)nc2ccccc12` :
A. false

Q. Call for entry `O=c1c(-c2ccccc2)nc2cncnc2n1Cc1ccccc1` :
A. false

Q. Call for entry `COc1ccccc1-c1ccc2ncnc(N3CCOCC3)c2c1` :
A. false

Q. Call for entry CC1CCC(C(C)C)C(OC(=O)c2ccccc2O)C1 (configuration not stated) :
A. false

Q. Call for entry `COc1cccc(-c2ccc3ncnc(Nc4ccccc4)c3c2)c1` :
A. false

Q. Call for entry `CCNc1ncc2ncc(=O)n(Cc3ccc(F)cc3)c2n1` :
A. false

Q. Call for entry `Cc1nc2cnc(N3CCN(C)CC3)nc2n(CCc2ccccc2)c1=O` :
A. false

Q. Call for entry `COc1ccc(Oc2ncc3nc(-c4cccc(C#N)c4)c(=O)n(Cc4cccc(OC)c4)c3n2)cc1` :
A. false

* * *

biological target: Rap guanine nucleotide exchange factor 3 (Homo sapiens) (UniProt O95398); assay: Confirmatory qHTS for antagonist of cAMP-regulated guanine nucleotide exchange factor 3 (EPAC1) (AID 1645880); details: EPAC1 Rap1B-BODIPY-GDP exchange, fluorescence; further: nearly all actives have a fitted effect of over 55% in size
Sequence (O95398 whole entry, looked up): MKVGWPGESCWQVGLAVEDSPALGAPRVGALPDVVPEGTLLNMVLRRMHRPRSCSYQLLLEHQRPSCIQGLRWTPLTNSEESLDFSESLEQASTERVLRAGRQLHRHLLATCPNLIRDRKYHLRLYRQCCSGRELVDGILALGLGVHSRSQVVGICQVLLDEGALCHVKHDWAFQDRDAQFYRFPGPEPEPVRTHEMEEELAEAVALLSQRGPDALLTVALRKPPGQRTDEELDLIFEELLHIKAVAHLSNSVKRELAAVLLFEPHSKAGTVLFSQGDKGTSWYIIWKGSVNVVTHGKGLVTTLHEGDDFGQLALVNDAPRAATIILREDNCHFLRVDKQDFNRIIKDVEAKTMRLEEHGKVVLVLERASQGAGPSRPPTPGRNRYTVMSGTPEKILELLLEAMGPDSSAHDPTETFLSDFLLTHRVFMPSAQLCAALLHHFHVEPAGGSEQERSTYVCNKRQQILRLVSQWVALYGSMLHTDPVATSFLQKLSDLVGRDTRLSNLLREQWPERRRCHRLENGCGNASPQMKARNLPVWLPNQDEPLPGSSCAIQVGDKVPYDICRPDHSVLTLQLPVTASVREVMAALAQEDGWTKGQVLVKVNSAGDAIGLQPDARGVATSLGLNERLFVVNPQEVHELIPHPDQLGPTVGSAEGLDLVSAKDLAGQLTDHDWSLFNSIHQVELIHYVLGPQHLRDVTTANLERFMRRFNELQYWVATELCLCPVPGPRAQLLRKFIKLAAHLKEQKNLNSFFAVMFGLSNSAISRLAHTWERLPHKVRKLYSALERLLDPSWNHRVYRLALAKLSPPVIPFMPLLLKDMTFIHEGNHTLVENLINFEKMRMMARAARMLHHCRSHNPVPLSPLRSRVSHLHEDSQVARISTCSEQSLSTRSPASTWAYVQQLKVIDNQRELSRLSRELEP
Inconclusive results are not listed. Active and inactive are the calls of the source. Calls follow the shape of the dose curve; as a rule, active = well fitted inhibition curve with a large enough effect; inconclusive = small, poorly fitted or top-dose-only effect; inactive = no such curve, though single readings can be large or run the other way.
Please state which outcome applies, choosing from yes = active, no = inactive

Answered examples (3):
>>> categorylabel("Cc1cc(/C=C2\\SC(=S)NC2=O)cc(C)c1O")
"yes"
>>> categorylabel("COc1ccc(-n2c(O)c(/C=N/NS(=O)(=O)c3cc(C)ccc3C)c3ccccc3c2=O)cc1OC")
"no"
>>> categorylabel("Cc1oc2c(c1C(=O)c1ccccc1)C(=O)C(=O)c1ccccc1-2")
"yes"

Q. Call for entry `CCCCOc1ccc(/C=C/C(=O)OCC(=O)NC(=O)NCC(C)C)cc1OCC` :
A. no

Q. Call for entry `Cc1cc(C)cc(OCCSc2nc(-c3ccc(C(C)(C)C)cc3)nc3cc(=O)[nH]n23)c1` :
A. yes

Q. Call for entry Cc1[nH]c2ccccc2c1C(c1ccccc1)c1ccc(Cl)s1 (configuration not stated) :
A. no

Q. Call for entry Cc1cc(-c2nn(-c3ccccc3F)cc2CN2CCCC(O)C2)c(C)s1 (configuration not stated) :
A. no

Q. Call for entry `CC(=O)Nc1sc2c(c1-c1nc3ccccc3s1)CN(C(C)C)CC2` :
A. no

Q. Call for entry `O=C1/C(=C/C=C/c2ccccc2)Oc2c1ccc(O)c2CN1CCN(CCO)CC1` :
A. no
